Source: ChEMBL document CHEMBL3046899

method: Binding affinity to GABA-A receptor benzodiazepine site (unknown origin)
Design: species or system Homo sapiens
So I've got a bunch of compounds here, and I need their pIC50 values.

Solved cases (4 shown):
COc1cc2c(cn1)[nH]c1ccccc12: 6.91
Oc1cc2c(cn1)[nH]c1ccccc12: 5.4
CCCOc1cc2c(cn1)[nH]c1ccccc12: 7.96
CCOC(=O)c1cc2c(cn1)[nH]c1ccccc12: 8.3

List the reported pIC50 of each compound below.
1. c1ccc2c(c1)[nH]c1cnccc12 [NORHARMANE]
2. CC(=O)C(=O)c1cc2c(cn1)[nH]c1ccccc12
3. O=[N+]([O-])c1cc2c(cn1)[nH]c1ccccc12
4. CC(C)(C)COC(=O)c1cc2c(cn1)[nH]c1ccccc12
5. CCCCc1cc2c(cn1)[nH]c1ccccc12
6. CC(C)Oc1cc2c(cn1)[nH]c1ccccc12
7. Clc1cc2c(cn1)[nH]c1ccccc12

Response line:
1. 5.79
2. 8
3. 6.9
4. 6.12
5. 6.64
6. 6.29
7. 7.35

List the reported pIC50 of each compound below.
1. S=C=Nc1cc2c(cn1)[nH]c1ccccc12
2. CCOc1cc2c(cn1)[nH]c1ccccc12
3. CCCC(=O)c1cc2c(cn1)[nH]c1ccccc12
4. CCc1nc(C(=O)OC)cc2c1[nH]c1ccccc12

Response line:
1: 8.1; 2: 7.62; 3: 7.64; 4: 5.12

List the reported pIC50 of each compound below.
1. Nc1cc2c(cn1)[nH]c1ccccc12
2. Cc1nccc2c1[nH]c1ccccc12 [HARMAN]
3. CCCCOc1cc2c(cn1)[nH]c1ccccc12
4. CCOC(=O)c1ncc2[nH]c3ccc(OCc4ccccc4)cc3c2c1COC
5. COC(=O)c1cc2c(cn1)[nH]c1ccccc12 [BETA-CCM]

Response line:
[4.6, 4.91, 7.01, 9, 8.3]
